- System: Calu-1
- assayName: Anticancer activity against human Calu1 cells at 10 uM after 48 hrs by propidium iodide fluorescence assay
- Type: functional
Label rule, in plain words: Activity of 20% and up is yes (1), under 20% is no (0).

// query Please tell me: is the compound COc1ccc(C(=O)/C=C/C=C(\Cl)c2ccc(Br)cc2)c(OC)c1 at or over 20% in terms of Activity?
// result yes (1)

// query Please tell me: is the compound COc1ccc(C(=O)/C=C/C=C(\Cl)c2ccc(F)cc2)cc1 at or over 20% in terms of Activity?
// result no (0)

// query Please tell me: is the compound COc1ccc(C(=O)/C=C/C=C(\Cl)c2ccc(Cl)cc2)cc1 at or over 20% in terms of Activity?
// result yes (1)

// query Please tell me: is the compound COc1ccc(C(=O)/C=C/C=C(\Cl)c2ccc(OC)cc2OC)c(OC)c1 at or over 20% in terms of Activity?
// result yes (1)

// query Please tell me: is the compound COc1ccc(C(=O)/C=C/C=C(\Cl)c2ccc(Cl)cc2)c(OC)c1 at or over 20% in terms of Activity?
// result yes (1)
